B1: CHCHD3 (parent)
chain: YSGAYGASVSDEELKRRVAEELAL

Variants of: B1
Test: protein stability index of a GFP-peptide fusion (GPS, HEK-293T) (PSI 1-6); higher = more stable;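 further: lentivirally expressed fusions sorted by FACS into six bins by GFP to DsRed ratio, PSI derived from sequencing read proportions per bin multiplied by bin number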
Details: c terminus: a fixed tail appended
Below, each of the variants is paired with its reported protein stability index value.

| Mutation descriptor | protein stability index |
| --- | --- |
| R16G | 2.92 |
| G3W | 2.63 |
| R16H | 2.45 |
| G6Y | 1.9 |
| G3V | 3.98 |
| A4M | 2.59 |
| K15W | 2.04 |
| Y5W | 2.4 |
| A7S | 3.48 |
| L14P | 2.24 |
| E21S | 3.57 |
| L22Y | 1.94 |
| D11E | 1.55 |
| E12W | 3.11 |
| A7N | 3.61 |
| V18C | 2.76 |
| L14Y | 3.56 |
| R16K | 2.65 |
| E21W | 2.62 |
| V9Q | 3.18 |
| E12S | 2.09 |
| A4I | 3.21 |
| G3D | 5.41 |
| E20P | 2.49 |
| L22E | 2.7 |
| A19Y | 2.27 |
| A19H | 3.24 |
| E21N | 2.9 |
| A23M | 2.65 |
| D11V | 3.23 |
| L24K | 2.87 |
| Y1G | 4.87 |
| G3C | 2.73 |
